# maps each entry to its growth inhibition
# Assay Details: NCI Yeast Anticancer Drug Screen. Data for the sgs1 mgt1 strain (AID 161);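 also: 0% = growth of cultures given vehicle only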
# Reported Conditions: S. cerevisiae sgs1 mgt1 strain, stronger effect = higher value; at 50.0 µM unless noted
The panel holds about 79,000 compounds, 15% with a hit somewhere; the sample as a whole holds those more often.
Give just the numeric value; % need not be written.

Example entries and their recorded answers appear below.
Cc1nc2ncnc(N)c2[nH]1 : -12.5
COc1ccc2cc3n(c(=O)c2c1OC)CCc1cc2c(cc1-3)OCO2 : 14.2
Cc1nnc(N)nc1C : -10.1
CCCCCC=C(c1cc(Cl)c(OC)c(C(N)=O)c1)c1cc(Cl)c(OC)c(C(N)=O)c1 : -12.4
COc1cc(CC(=O)C(=O)O)ccc1O : 4.35

# input Can you look up the measured growth inhibition of CCN(CCOC)C(C)=O for me?
# output 17.6

# input What do you have for Cc1ccc(NC(=O)C2CCCCC2)cc1 ?
# output -6.6

# input What do you have for Cn1nnnc1NCc1ccccc1 ?
# output -5.85

# input What do you have for CC(=O)OC[C@@]12C[C@H]3C(=O)C(C)(C)C[C@H]3[C@]1(C)[C@@H](OC(C)=O)[C@]1(O)[C@H]([C@@H](OC(=O)c3ccccc3)[C@@H](C)[C@H]1OC(C)=O)[C@H]2OC(C)=O ?
# output 3.25

# input What do you have for CCCCC1(CC)COC(=O)N(C)C1 (configuration not stated) ?
# output 0.65

# input What do you have for CC(COc1ccc(C(C)(C)C)cc1)OC=O (configuration not stated) ?
# output 19.4

# input What do you have for O=C1CN2CCC1C/C2=C\c1ccnc2c(Cl)cc(Cl)cc12 (configuration not stated) ?
# output -0.9
